- subject_of_test: D(2) dopamine receptor (Homo sapiens) (UniProt P14416)
- Sequence (P14416 whole entry, looked up): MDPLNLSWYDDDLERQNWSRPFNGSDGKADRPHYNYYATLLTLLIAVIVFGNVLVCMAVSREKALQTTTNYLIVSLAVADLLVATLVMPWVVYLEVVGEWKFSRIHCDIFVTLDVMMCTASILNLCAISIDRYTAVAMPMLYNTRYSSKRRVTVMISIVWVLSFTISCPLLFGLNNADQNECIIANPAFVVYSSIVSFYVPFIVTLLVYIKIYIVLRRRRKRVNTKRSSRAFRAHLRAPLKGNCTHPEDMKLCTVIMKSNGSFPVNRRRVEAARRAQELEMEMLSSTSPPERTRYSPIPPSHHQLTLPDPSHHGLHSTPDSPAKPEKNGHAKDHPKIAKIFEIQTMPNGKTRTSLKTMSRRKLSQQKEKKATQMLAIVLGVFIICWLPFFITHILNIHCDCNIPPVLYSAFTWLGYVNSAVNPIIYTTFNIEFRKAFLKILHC
- assay_details: HTS Assay for Allosteric Antagonists of the Human D2 Dopamine Receptor: Primary Screen for Antagonists; further: 0% is about no effect
- run_conditions: HEK293 TREx D2 cells, calcium flux, dopamine EC80; at 10 µM; hits give high values
Out of some 340,000 compounds screened, about 6,900 (2%) were called active. The sample holds actives, similar compounds and a random draw of the others, so the mix is not that of the screen.
observable: inhibition (%)
Numbers only, in %.

# example entries with known answers
- molecule: "CCN(CC(=O)NCc1ccc(Cl)cc1)C(=O)CSc1ccccc1"
  inhibition (%): -4.45
- molecule: "CC(C)N(Cc1nnc(-c2ccccc2Br)o1)C(=O)c1cc(Cl)nc2ccccc12"
  inhibition (%): -0.847
- molecule: "NS(=O)(=O)c1ccc(-c2ccc(/C=C3\\SC(=O)NC3=O)o2)cc1"
  inhibition (%): 47.3

Dear colleague, could you send me inhibition for each of the items below? Thanks.
1. Cc1ccccc1-c1cc(C(=O)NCc2cccs2)n(CC2CC(c3cccnc3)=NO2)n1 (stereo not given)
2. CN1CCN(/N=C/c2ccc(-c3ccc([N+](=O)[O-])cc3)o2)CC1
3. CCN(CC(=O)NCc1ccc(Cl)cc1)C(=O)c1c(C)noc1C
4. Cc1ccc(S(=O)(=O)N(C)C)cc1NC(=O)CN1c2cccc3cccc(c23)S1(=O)=O

1. 37.9
2. 11.1
3. 30.3
4. 37

Dear colleague, could you send me inhibition for each of the items below? Thanks.
1. CCCCn1c(N)c(N(CCC(C)C)C(=O)COC(=O)c2ccc(CC)cc2)c(=O)[nH]c1=O
2. COc1ccc(C(=O)NCc2ccc(Cl)cc2)cc1S(=O)(=O)N1CCCC1
3. CC(C)CN(CC(C)C)C(=O)CN1c2cccc3cccc(c23)S1(=O)=O

1: -24; 2: -28.1; 3: -10.2

###

- subject_of_test: D(2) dopamine receptor (Homo sapiens)
- assay_details: HTS Assay for Allosteric Antagonists of the Human D2 Dopamine Receptor: Primary Screen for Antagonists; further: 0% is about no effect
- run_conditions: HEK293 TREx D2 cells, calcium flux, dopamine EC80; at 10 µM
Out of some 340,000 compounds screened, about 6,900 (2%) were called active. Rule as the data show it: active = inhibition above about 30%; inactive = below that, where a call was filed. This excerpt belongs to a sample that is enriched for actives.
Respond with a class label; see active, inactive

I'd appreciate the recorded outcome for CC1CCCCC1NC(=O)CO/N=C/c1ccc(OC(F)F)cc1 (stereo unspecified) from this test.
active

I'd appreciate the recorded outcome for CC(C)=CCC/C(C)=C/C(=O)O from this test.
active

###

- subject_of_test: D(2) dopamine receptor (Homo sapiens) (UniProt P14416)
- assay_details: HTS Assay for Allosteric Antagonists of the Human D2 Dopamine Receptor: Primary Screen for Antagonists; further: 0% is about no effect
- run_conditions: HEK293 TREx D2 cells, calcium flux, dopamine EC80; at 10 µM; hits give high values
About 6,900 (2%) of roughly 340,000 compounds were called active. Shown is part of a subset that was picked to be rich in actives.
observable: inhibition (%)
Numbers only, in %.

- compound: "CCN1CCCC1CNC(=O)c1cc2c(=O)n(C)c3ccccc3c2n1C (stereo not given)"
  inhibition (%): -1.94
- compound: "COc1ccc(-n2nnnc2SCC(=O)NCc2cccs2)cc1"
  inhibition (%): -2.89
- compound: "COc1cc2[nH]c(=O)n(CCC(=O)NC3CCN(Cc4ccccc4)CC3)c(=O)c2cc1OC"
  inhibition (%): -8.24
- compound: "COc1ccc(-n2c(SCC(=O)NCc3cccs3)nnc2-c2ccoc2C)cc1"
  inhibition (%): 42.5
- compound: "COc1cc(C(=O)NC2CCN(Cc3ccccc3)CC2)cc(Cl)c1OC(C)C"
  inhibition (%): 47.6

Dear colleague, could you send me inhibition for each of the items below? Thanks.
1. CCOC(=O)N1CCC(NC(=O)COc2cc(=O)n(C)c3ccccc23)CC1
2. Cn1c(C(=O)NCCCN2CCN(c3cccc(Cl)c3)CC2)cc2c(=O)n(C)c3ccccc3c21
3. CCOC(=O)N1CCC(Nc2c(NCCN3CCN(c4cccc(Cl)c4)CC3)c(=O)c2=O)CC1
4. CCn1c(=O)cc(OCC(=O)NCCCN2CCN(c3cccc(Cl)c3)CC2)c2ccccc21
5. COc1ccc(C(=O)NC2CC2)cc1OC1CCN(Cc2ccc(SC)cc2)CC1

[7.2, 95.2, -2.93, 78.9, 2.51]
